experiment notes: Quantitative High-Throughput drug screen in 47 multiple myeloma cell lines against the NCATS MIPE library collection: U266_ATCC cell viability assay (AID 1919864); further: nearly all actives have a fitted effect of over 35% in size
measurement context: U266 myeloma viability, CellTiter-Glo ATP luminescence, 48 h; series mostly up to 45.8 µM
Inconclusive results are not listed. Active and inactive are the calls of the source. The call rests on the fitted dose curve; in most records, active means well fitted cell-killing curve with a large enough effect; inconclusive means small, poorly fitted or top-dose-only effect, or effect the other way; inactive means no such curve, though single readings can be large or run the other way.
Allowed answers: YES (active), NO (inactive)

Reference set (2 entries):
Nc1[nH]nc2nnc(-c3c(-c4ccccc4)nn4ccccc34)cc12: YES
Cc1cnc(Nc2cccc(CN3CCOCC3)c2)nc1Nc1cccc(S(=O)(=O)NC(C)(C)C)c1: NO

Inquiry: // outcome(item) with item = OC[C@H]1O[C@@H](OCCc2ccc(O)cc2)[C@H](O)[C@@H](O)[C@H]1O
Reply text: YES

Inquiry: // outcome(item) with item = CNC(=O)c1cc(COc2nnc(Nc3ccc(Cl)cc3)c3ccoc23)ccn1
Reply text: NO

Inquiry: // outcome(item) with item = CC(C)N(CCCNC(=O)Nc1ccc(C(C)(C)C)cc1)C[C@H]1O[C@@H](n2cc(Br)c3c(N)ncnc32)[C@H](O)[C@H]1O
Reply text: YES

Inquiry: // outcome(item) with item = O=C1C(c2c(O)[nH]c3ccccc23)=Nc2ccccc21
Reply text: YES

Inquiry: // outcome(item) with item = CCC(=O)OCC(=O)[C@@]1(OC(=O)CC)[C@@H](C)C[C@@H]2[C@H]3CCC4=CC(=O)C=C[C@]4(C)[C@@]3(F)[C@@H](O)C[C@@]21C
Reply text: NO

Inquiry: // outcome(item) with item = CO[C@@H]1C(N(C)C(=O)c2ccccc2)C[C@H]2O[C@]1(C)n1c3ccccc3c3c4c(c5c6ccccc6n2c5c31)C(=O)NC4=O (some centres undefined)
Reply text: YES

Inquiry: // outcome(item) with item = Cc1ccc(NC(=O)c2ccc(CN3CCN(C)CC3)cc2)cc1Nc1nc(-c2cccnc2)cs1
Reply text: YES

###

experiment notes: Quantitative High-Throughput drug screen in 47 multiple myeloma cell lines against the NCATS MIPE library collection: Delta47_JCRB cell viability assay (AID 1918925; further: nearly all actives have a fitted effect of over 45% in size)
measurement context: Delta47 myeloma viability, CellTiter-Glo ATP, 48 h; series mostly up to 45.8 µM
Results filed as inconclusive are left out. Active and inactive are the calls of the source. The call rests on the fitted dose curve; in most records, active means well fitted cell-killing curve with a large enough effect; inconclusive means small, poorly fitted or top-dose-only effect, or effect the other way; inactive means no such curve, though single readings can be large or run the other way.
Allowed answers: active, inactive

C[C@@]1(c2cc(-c3cncnc3)c(F)cc2F)CCSC(N)=N1: inactive

Inquiry: // outcome(item) with item = COc1c(C)cnc(Cn2cnc3c(Cl)nc(N)nc32)c1C
Reply text: active

###

experiment notes: qHTS Screen of the MIPE 4.0 Collection Against Ewings Sarcoma (RDES) (AID 1259252); further: nearly all actives have a fitted effect of over 35% in size
measurement context: RD-ES Ewing sarcoma viability, CellTiter-Glo, 48 h; series mostly up to 45.8 µM
Records with an inconclusive call do not appear. Active and inactive are the calls of the source. Calls come from the whole dose curve; as a rule, active = well fitted inhibition curve with a large enough effect; inconclusive = small, poorly fitted or top-dose-only effect; inactive = no such curve, though single readings can be large or run the other way.
Allowed answers: active, inactive

CC(O)=C(C#N)C(=O)Nc1ccc(C(F)(F)F)cc1: active
CC1=C(CC(=O)O)c2cc(F)ccc2C1=Cc1ccc(S(C)=O)cc1 (centres undefined): active
CC1(C)C(N(O)C(=O)Nc2ccc(Cl)cc2)N(c2ccc(Cl)cc2)C(=O)N1CC(=O)NN=CC=Cc1ccc([N+](=O)[O-])o1 (centres undefined): active
Cc1ccccc1C(C(=O)NC1CCCCC1)N(C(=O)CNc1ccc(C#N)cc1)c1cccc(F)c1 (centres undefined): inactive
COc1cc(F)c(C(C)C)cc1-c1ccc(C(F)(F)F)cc1CN1C(=O)O[C@H](c2cc(C(F)(F)F)cc(C(F)(F)F)c2)[C@@H]1C: inactive

Inquiry: // outcome(item) with item = CCC(=O)NCC[C@@H]1CCc2ccc3c(c21)CCO3
Reply text: inactive

Inquiry: // outcome(item) with item = O=S(=O)(O)c1ccc2cc(N=Nc3cc(S(=O)(=O)O)c4cccnc4c3O)ccc2c1
Reply text: active

Inquiry: // outcome(item) with item = CCc1cc(-c2n[nH]c(C)c2-c2ccc3c(c2)OCCO3)c(O)cc1O
Reply text: active

Inquiry: // outcome(item) with item = CNC1[C@H](O)C(O[C@@H]2C(O)C(O[C@H]3O[C@H]([C@@H](C)NC)CC[C@H]3N)[C@@H](N)C[C@H]2N)OC[C@]1(C)O (some centres undefined)
Reply text: inactive

Inquiry: // outcome(item) with item = CC(C)=CCCC(C)=CCCC(C)=CCCC(C)=CCCC(C)=CCCC(C)=CCCC(C)=CCCC(C)=CCCC(C)=CCO
Reply text: inactive

Inquiry: // outcome(item) with item = COc1ccc(-c2cc(=O)c3c(O)cc(O[C@@H]4O[C@H](CO[C@@H]5O[C@@H](C)[C@H](O)[C@@H](O)[C@@H]5O)[C@@H](O)[C@H](O)[C@@H]4O)cc3o2)cc1O
Reply text: active

###

experiment notes: Quantitative High-Throughput drug screen in 47 multiple myeloma cell lines against the NCATS MIPE library collection: JIM3_ECACC cell viability assay (AID 1918963; further: nearly all actives have a fitted effect of over 35% in size)
measurement context: JIM3 myeloma viability, CellTiter-Glo ATP, 48 h; series mostly up to 45.8 µM
Text: PI: Beverly A. Mock Ph.D. Laboratory of Cancer Biology and Genetics, Center for Cancer Research, National Cancer Institute, National Institute of Health, Bethesda, Maryland […] 5; Detector; 425V; Luminescence; Viewlux PerkinElmer. […] 1. […] Briefly, the corresponding myeloma cell lines were screened in 1,536-well plates with 500 cells, 5-uL per well for inhibition of cell viability (assessed by measuring ATP levels with CellTiterGlo). […]
Records with an inconclusive call do not appear. Activity calls are given as the source filed them. Calls follow the shape of the dose curve; as a rule, active = well fitted cell-killing curve with a large enough effect; inconclusive = small, poorly fitted or top-dose-only effect; inactive = no such curve, though single readings can be large or run the other way.
Allowed answers: 1 (active), -1 (inactive)

Reference set (3 entries):
Cc1ccccc1-n1c(Cn2nc(-c3cccc(O)c3)c3c(N)ncnc32)nc2cccc(C)c2c1=O: 1
CC1C(=O)OC2C(O)C34C5CC(C(C)(C)C)C36C(OC(=O)C6O)OC4(C(=O)O5)C12O (centres undefined): -1
Cc1cc(CS(=O)(=O)c2ccccc2)cc(OCc2ccc(CN3CCC[C@H]3CO)cc2)c1: 1

Inquiry: // outcome(item) with item = CC(C)c1c(C(=O)Nc2ccccc2)c(-c2ccccc2)c(-c2ccc(F)cc2)n1CC[C@H](O)C[C@@H](O)CC(=O)O
Reply text: 1

Inquiry: // outcome(item) with item = N#CC(c1ccnc(NCCc2cccnc2)n1)c1nc2ccccc2s1 (centres undefined)
Reply text: 1

Inquiry: // outcome(item) with item = COc1ccc(-c2oc3c(CC=C(C)C)c(O)cc(O)c3c(=O)c2O)cc1
Reply text: -1

Inquiry: // outcome(item) with item = COC(=O)Nc1ccc(-c2nc(N3CCOCC3)c3cnn(C4CCN(C(=O)OC)CC4)c3n2)cc1
Reply text: 1

Inquiry: // outcome(item) with item = CCNC(=O)c1noc(-c2cc(C(C)C)c(O)cc2O)c1-c1ccc(CN2CCOCC2)cc1
Reply text: 1

Inquiry: // outcome(item) with item = Cc1ccc(C(=O)N(CCCN)[C@@H](c2nc3cc(Cl)ccc3c(=O)n2Cc2ccccc2)C(C)C)cc1
Reply text: -1

###

Potency values, listed per item
experiment notes: Quantitative High-Throughput drug screen in 47 multiple myeloma cell lines against the NCATS MIPE library collection: MMM1_PLB cell viability assay (AID 1918976); further: potency means the concentration at half of the fitted maximal effect; nearly all actives have a fitted effect of over 35% in size
measurement context: MMM1 myeloma cells viability, CellTiter-Glo, 48 h; series mostly up to 45.8 µM
Records with an inconclusive call do not appear. Calls of active or inactive are those of the source. Calls follow the shape of the dose curve; as a rule, active = well fitted cell-killing curve with a large enough effect; inconclusive = small, poorly fitted or top-dose-only effect, or effect the other way; inactive = no such curve, though single readings can be large or run the other way.

Below, each entry is followed by its recorded Potency result.
CC(O)=C(C#N)C(=O)Nc1ccc(C(F)(F)F)cc1: 3.72 µM (active)
O=c1[nH]nc(OCCCc2ccc(Cl)cc2)c(NCc2cccnc2)c1Br: 16.6 µM (active)
Cc1cccc2c1CC[C@H](CN1CCC(c3c(Cl)cccc3Cl)CC1)C[C@@H]2O: 18.7 µM (active)
CN(C)N=Nc1nc[nH]c1C(N)=O: 4.69 µM (active)
CO[C@H]1O[C@@H]2O[C@@]3(C)CC[C@@H]4[C@@H](C)CC[C@@H]([C@H]1C)[C@@]24OO3: 3.72 µM (active)
CC(C)(C)c1[nH]cnc1C=c1[nH]c(=O)c(=Cc2ccccc2)[nH]c1=O: 15.2 µM (active)
COc1cc(N2CCN(C)CC2)ccc1Nc1nc(N)c(C(=O)c2c(Cl)cccc2Cl)s1: 8.33 µM (active)
Nc1ncnc2c1c(-c1cccc(OCc3ccccc3)c1)cn2C1CC(CN2CCC2)C1 (configuration not stated): 2.96 µM (active)

Inquiry: Using the record for CC(C)C[C@@H](N)[C@H](O)C(=O)N[C@H](C(=O)N[C@H](C(=O)N[C@@H](CC(=O)O)C(=O)O)C(C)C)C(C)C , report its Potency.
Reply text: 1.66 µM (active)

Inquiry: Using the record for O=S(=O)(O)c1ccc2cc(N=Nc3cc(S(=O)(=O)O)c4cccnc4c3O)ccc2c1 , report its Potency.
Reply text: 3.72 µM (active)

Inquiry: Using the record for Cc1cc(CS(=O)(=O)c2ccccc2)cc(OCc2ccc(CN3CCC[C@H]3CO)cc2)c1 , report its Potency.
Reply text: 13.2 µM (active)

Inquiry: Using the record for CN1CC(=O)NC1=NC(=O)Nc1cccc(Cl)c1 , report its Potency.
Reply text: 20.9 µM (active)

Inquiry: Using the record for CN(C(Cc1ccc(OS(=O)(=O)c2cccc3cnccc23)cc1)C(=O)N1CCN(c2ccccc2)CC1)S(=O)(=O)c1cccc2cnccc12 (configuration not stated) , report its Potency.
Reply text: 5.9 µM (active)

Inquiry: Using the record for CN[C@@H]1CN(c2ccc3c(=O)c(C(=O)O)cn(-c4nccs4)c3n2)C[C@@H]1OC , report its Potency.
Reply text: 8.12 µM (active)

Inquiry: Using the record for C[C@@]1(C(=O)Nc2ccc(F)nc2)CCCN1c1nc(Nc2cc(C3CC3)[nH]n2)c2cccn2n1 , report its Potency.
Reply text: 0.0209 µM (active)

Inquiry: Using the record for CCC[C@H](Nc1nc(-c2ccc(NC(=O)NCC)c(OC)c2)ncc1C)c1cccnc1 , report its Potency.
Reply text: 0.0209 µM (active)

Inquiry: Using the record for Cn1c(=O)c(Oc2ccc(F)cc2F)cc2cnc(NC3CCOCC3)nc21 , report its Potency.
Reply text: 1.87 µM (active)

Inquiry: Using the record for Cc1ccc(NC(=O)Nc2cc(C(F)(F)F)ccc2F)cc1Nc1ccc2c(c1)NC(=O)C2=Cc1ccc[nH]1 , report its Potency.
Reply text: 33.2 µM (active)

Inquiry: Using the record for CC(C)c1onc(-c2c(Cl)cccc2Cl)c1COc1ccc(C=Cc2cccc(C(=O)O)c2)c(Cl)c1 , report its Potency.
Reply text: 20.9 µM (active)

Inquiry: Using the record for COc1ccc2cc1Oc1ccc(cc1)C[C@H]1c3cc(c(OC)cc3CCN1C)Oc1c(OC)c(OC)cc3c1[C@H](C2)N(C)CC3 , report its Potency.
Reply text: 6.62 µM (active)

Inquiry: Using the record for CC(=O)Nc1cccc(-n2c(=O)n(C3CC3)c(=O)c3c(Nc4ccc(I)cc4F)n(C)c(=O)c(C)c32)c1 , report its Potency.
Reply text: 7.43 µM (active)

Inquiry: Using the record for O=C(O)C1=NC(C(=O)O)CC(C=CN2c3cc(O)c(OC4OC(CO)C(O)C(O)C4O)cc3CC2C(=O)O)=C1 (configuration not stated) , report its Potency.
Reply text: 23.5 µM (active)

Inquiry: Using the record for Cc1ccccc1-n1c(Cn2nc(-c3cccc(O)c3)c3c(N)ncnc32)nc2cccc(C)c2c1=O , report its Potency.
Reply text: 18.7 µM (active)

Inquiry: Using the record for C=C[C@@H]1CN2CCC1C[C@@H]2C(O)c1ccnc2ccc(OC)cc12 (some centres not stated) , report its Potency.
Reply text: 11.8 µM (active)

Inquiry: Using the record for COc1cc(Cl)cn2c(-c3cccc(NC4CNC4)n3)cnc12 , report its Potency.
Reply text: 20.9 µM (active)

Inquiry: Using the record for CN(C)CCOc1ccc(-c2nc(-c3ccc4c(c3)CCC4=NO)c(-c3ccncc3)[nH]2)cc1 , report its Potency.
Reply text: 20.9 µM (active)

Inquiry: Using the record for COc1nccc(-c2c(-c3ccc(F)cc3)ncn2C2CCNCC2)n1 , report its Potency.
Reply text: 13.2 µM (active)

Inquiry: Using the record for COc1cc2nccc(Oc3ccc(NC(=O)Nc4cc(C)on4)c(Cl)c3)c2cc1OC , report its Potency.
Reply text: 23.5 µM (active)

Inquiry: Using the record for N#CC(=C1Nc2ccccc2S1)c1ccnc(OCc2ccc(CN3CCOCC3)cc2)n1 , report its Potency.
Reply text: 14.8 µM (active)

Inquiry: Using the record for O=C(O)Cc1cccc(OCCCN(Cc2cccc(C(F)(F)F)c2Cl)CC(c2ccccc2)c2ccccc2)c1 , report its Potency.
Reply text: 6.62 µM (active)
